- Tested on: CD2F1 mice, L1210 leukemia ip, survival T/C
- test_description: NCI In Vivo Anticancer Drug Screen. Data for tumor model L1210 Leukemia (intraperitoneal) in CD2F1 (CDF1) mice
- condition_context: endpoint: mean survival time; dose: 100.0 mg/kg/injection; schedule: Q01DX001 (ip); vehicle: saline with Tween-80
Inconclusive results and toxic doses are left out. Rule for the calls: active = survival T/C of 150% or more; inactive = T/C below 125% in these data.
Choose the fitting class; nothing outside class 1 for active, class 0 for inactive is accepted.

Study these solved cases before continuing.
| molecule | class_name |
| --- | --- |
| CCCCCCCCCCCC(=O)NC(=S)Nc1cc(Cl)ccc1Cl | class 0 |
| O=C1CC(=O)C(CCc2cccc3ccccc23)C1=O (configuration not stated) | class 0 |
| Cc1ccc(S(=O)(=O)OC2COC3C(OS(=O)(=O)c4ccc(C)cc4)COC23)cc1 (configuration not stated) | class 0 |
| CCOC(=O)C(C)(C)Oc1ccc(Cl)cc1 | class 0 |
| CC(C)(C)C1=Nc2ccccc2[Si]1(C)C | class 0 |
| CCCCCCCCCCCCCCCC(=O)OCC1OC(n2ccc(N)nc2=O)C(O)C1O (configuration not stated) | class 1 |
| Cc1cccc(Oc2ccc(C(F)(F)F)cc2[N+](=O)[O-])c1 | class 0 |
| O=S(=O)(F)c1ccc(O)cc1 | class 0 |
| CCOc1nc2nc[nH]c(=O)c2cc1C#N | class 0 |
| CC(C)(C)S/C(=N/N=O)NN=O | class 0 |

Dear colleague, could you share the recorded outcome for CCOC(=O)Cc1cnc(SC)nc1Nc1ccc(F)cc1 when you have a moment? class 0

Dear colleague, could you share the recorded outcome for CCOc1ccc(-n2c(O)c(N=Nc3ccccc3OC)c(=O)n(-c3ccccc3)c2=S)cc1 when you have a moment? class 0

###

- Tested on: CD2F1 mice, L1210 leukemia ip, survival T/C
- test_description: NCI In Vivo Anticancer Drug Screen. Data for tumor model L1210 Leukemia (intraperitoneal) in CD2F1 (CDF1) mice
- condition_context: endpoint: mean survival time; dose: 400.0 mg/kg/injection; schedule: Q01DX001 (ip); vehicle: saline; higher = longer survival
Toxic doses and inconclusive results are not listed.
T/C values for the molecules below.

| molecule | T/C |
| --- | --- |
| COc1ccc(-c2c(C(=O)O)cc(O)c3cc(OC)c(OC)cc23)cc1OC | 92 % of control |
| Cc1cc(C)c2[nH]c(=O)c(C)c(C)c2c1 | 93 % of control |

Report T/C, nothing else, for this molecule: CCN(CC)c1ccc(NC(=O)c2ccc(C(=O)Nc3ccc(N(CC)CC)cc3)cc2)cc1 92 % of control

Report T/C, nothing else, for this molecule: COC1OC(COC(=O)c2ccc([N+](=O)[O-])cc2)C(SC#N)C1OC(=O)c1ccc([N+](=O)[O-])cc1 (configuration not stated) 101 % of control

Report T/C, nothing else, for this molecule: O=C1CCC(=O)N1O 103 % of control

Report T/C, nothing else, for this molecule: COC(=O)CC(NC(=O)C(F)(F)F)C(=O)OC (configuration not stated) 98 % of control

###

- System: CD2F1 mice, L1210 leukemia ip, survival T/C
- test_description: NCI In Vivo Anticancer Drug Screen. Data for tumor model L1210 Leukemia (intraperitoneal) in CD2F1 (CDF1) mice
- condition_context: endpoint: mean survival time; dose: 400.0 mg/kg/injection; schedule: Q04DX003 (ip); vehicle: saline sonified; higher = longer survival
Inconclusive results and toxic doses are left out.
assay_readout: T/C

Report T/C, nothing else, for this compound: O=C(c1ccccc1)c1ccc([N+](=O)[O-])cc1 100 % of control

Report T/C, nothing else, for this compound: COc1ccc(C(C#N)Nc2ccccc2)cc1 (centres undefined) 103 % of control

Report T/C, nothing else, for this compound: C(=Nc1ccccc1)c1ccc(-c2ccccc2)cc1 94 % of control

Report T/C, nothing else, for this compound: S=C1SCCS1 89 % of control

###

T/C values for the compounds below.
- Test system: CD2F1 mice, L1210 leukemia ip, survival T/C
- test_description: NCI In Vivo Anticancer Drug Screen. Data for tumor model L1210 Leukemia (intraperitoneal) in CD2F1 (CDF1) mice
- condition_context: endpoint: mean survival time; dose: 200.0 mg/kg/injection; schedule: Q04DX003 (ip); vehicle: saline sonified; higher = longer survival
Toxic doses and inconclusive results are not listed.

| given_smiles | T/C |
| --- | --- |
| S=C1SCCS1 | 107 % of control |
| O=C(c1ccccc1)c1ccc([N+](=O)[O-])cc1 | 95 % of control |
| FCCc1ccccc1 | 98 % of control |

Alright, here's another compound for you.
Give measured T/C for COc1cc2ccnc(Cc3ccc4c(c3)OCO4)c2cc1OC (CD2F1 mice, L1210 leukemia ip, survival T/C). 105 % of control

###

- Tested on: CD2F1 mice, L1210 leukemia ip, survival T/C
- test_description: NCI In Vivo Anticancer Drug Screen. Data for tumor model L1210 Leukemia (intraperitoneal) in CD2F1 (CDF1) mice
- condition_context: endpoint: mean survival time; dose: 200.0 mg/kg/injection; schedule: Q01DX009 (ip); vehicle: saline; higher = longer survival
- Experimental: The antitumor activity of compounds was measured in mice bearing transplantable tumors. Survival or tumor size were measured and the results are expressed as the measurement made in the treated group (T) divided by the measurement made in the vehicle treated control group (C). The tumor model used in this assay is L1210 Leukemia (intraperitoneal) in CD2F1 (CDF1) mice
Inconclusive results and toxic doses are left out.
assay_readout: T/C

Report T/C, nothing else, for this molecule: CCCCC(C(=O)OCC)C1=NC(C)(C)CC(C)O1 (centres undefined) 97 % of control

Report T/C, nothing else, for this molecule: COC(=O)C(N)CCCCNc1ccc2c(cc1=O)C(NC(C)=O)CCc1cc(OC)c(OC)c(OC)c1-2 (centres undefined) 118 % of control

Report T/C, nothing else, for this molecule: O=C(O)CC1NCCC12OCCO2 (centres undefined) 98 % of control

###

- System: CD2F1 mice, L1210 leukemia ip, survival T/C
- test_description: NCI In Vivo Anticancer Drug Screen. Data for tumor model L1210 Leukemia (intraperitoneal) in CD2F1 (CDF1) mice
- condition_context: endpoint: mean survival time; dose: 400.0 mg/kg/injection; schedule: Q01DX001 (ip); vehicle: saline; higher = longer survival
Toxic doses and inconclusive results are not listed.
T/C values for the compounds below.

| compound | test_result |
| --- | --- |
| CC(C)(O)C(=NCc1ccccc1)c1ccccc1 | 104 % of control |
| ON(C(=S)Nc1ccccc1)c1ccccc1 | 97 % of control |
| O=S(=O)(O)c1ccc(O)cc1 | 100 % of control |
| CC(C)(C)CC(C)(C)c1ccc(OCCOc2ccc(S(=O)(=O)O)cc2[N+](=O)[O-])cc1 | 98 % of control |
| C=C(C)CCCC(C)C(O)C=O (centres undefined) | 95 % of control |
| CC(C)C/C(=N\Nc1ccccc1)c1ccccn1 | 97 % of control |
| CC1(C)C([N+](C)(C)C)CS1(=O)=O (centres undefined) | 103 % of control |
| CCCC(CCC)(C(N)=O)C(=O)O | 94 % of control |

Report T/C, nothing else, for this compound: Cc1ccc(OCC2CO2)cc1 (centres undefined) 102 % of control

Report T/C, nothing else, for this compound: COC(=O)C(C)NC(=O)C(CO)NC(=O)c1cnc2ccccc2n1 (centres undefined) 94 % of control

Report T/C, nothing else, for this compound: Cc1ccc(S(=O)(=O)OCCc2cccc3ccccc23)cc1 98 % of control

Report T/C, nothing else, for this compound: COC(=O)C(N)CCCCNc1ccc2c(cc1=O)C(NC(C)=O)CCc1cc(OC)c(OC)c(OC)c1-2 (centres undefined) 108 % of control

Report T/C, nothing else, for this compound: Cn1c(=O)c(Br)cc2ccccc21 96 % of control

###

- Test system: CD2F1 mice, L1210 leukemia ip, survival T/C
- test_description: NCI In Vivo Anticancer Drug Screen. Data for tumor model L1210 Leukemia (intraperitoneal) in CD2F1 (CDF1) mice
- condition_context: endpoint: mean survival time; dose: 400.0 mg/kg/injection; schedule: Q04DX003 (ip); vehicle: saline; higher = longer survival
Inconclusive results and toxic doses are left out.
T/C values for the compounds below.

Some entries whose results are on file:
| compound | T/C |
| --- | --- |
| CCOC(=O)c1cc2c3n(c1=O)CCCC3C(c1ccccn1)OC2=O (stereo unspecified) | 102 % of control |
| COC(=O)C(=O)c1ccccc1 | 103 % of control |
| COc1ccccc1C1C=CCCCC1 (stereo unspecified) | 96 % of control |
| c1cc[n+](CC[n+]2ccccc2)cc1 | 111 % of control |

Report T/C, nothing else, for this compound: O=C(Cl)CCc1ccnc2ccccc12 113 % of control

Report T/C, nothing else, for this compound: CCCCCC(C)O[Si](C)OCC (stereo unspecified) 108 % of control

Report T/C, nothing else, for this compound: c1cc2n(n1)CCN2 124 % of control

Report T/C, nothing else, for this compound: CN1C(=O)[N+]2(CCCCC2)N=C1[O-] 95 % of control

Report T/C, nothing else, for this compound: CC1(C)CC(O)CC(C)(C)N1O 97 % of control

Report T/C, nothing else, for this compound: CN(C)C(CCN1CCCCC1)CN1CCCCC1 (stereo unspecified) 98 % of control

Report T/C, nothing else, for this compound: NC1=NCNC(=O)N1 98 % of control
